protocol-summary: blockers of IFN-gamma driven STAT1 reporter – cell-based, HTS, luciferase reporter, primary screen (AID 920);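 further: 0% = IFN-gamma with DMSO and 100% = IFN-gamma with 300 µM nifuroxazide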
measurement-conditions: NIH 3T3 STAT1-luciferase reporter, luminescence, at 5.5 µM, stronger effect = higher value
In all, about 200,000 compounds went through this assay and about 700 (0.35%) were called active. Only a selection was taken, and actives are over-represented in it overall.
# key: entry, value: inhibition
recorded-metric: inhibition (%)

| smiles-text | recorded-metric | quantitative-readout |
| --- | --- | --- |
| CN(C)/C=C(\C=[N+](C)C)c1[nH]ncc1[N+](=O)[O-] | inhibition | -9.13 |
| COc1cccc(-c2nc3ccc(N4CCN(C)CC4)cc3[nH]2)c1 | inhibition | 63.1 |
| CN1CCN(c2cc(N3CCNCC3)ccc2[N+](=O)[O-])CC1 | inhibition | 12.4 |
| COc1ccc(CCn2c(O)c(C=NCCCn3ccnc3)c(=O)[nH]c2=O)cc1OC | inhibition | -4.43 |
